# assay.system: UniProt:Q16873
# assay.details: Human whole blood HTRF assay (LTC4 release after calcium ionophore A23187)
# Assay type: cell-based
# measurement.setup: human whole blood diluted 1:3, 4 h incubation, calcium ionophore A23187 stimulation, LTC4 by HTRF; read-out: human whole blood HTRF IC50
Lab note: anything with IC50 below 0.004 µM is marked 1.0; values at 0.004 µM or higher are marked 0.0.

Quick check: does O=C1CCCC2(CCN(c3cc(-c4ncco4)ncn3)CC2)N1c1ccc(F)c(F)c1 have IC50 under 0.004 µM? 0.0

Quick check: does C[C@H](Oc1cc(N2CCC3(CCOC(=O)N3c3ccc(F)c(F)c3)CC2)nc(N)n1)C(F)(F)F [Example 113b] have IC50 under 0.004 µM? 0.0

Quick check: does CC1(C(Oc2cc(N3CCC4(CCCC(=O)N4c4ccc(F)c(F)c4)CC3)nc(N)n2)C(F)(F)F)COC1 (racemic) have IC50 under 0.004 µM? 1.0

Quick check: does O=C1CCCC2(CCN(c3cc(-n4cc(C(F)(F)F)cn4)nc(CO)n3)CC2)N1c1ccc(F)c(F)c1 (racemic) [Example 67] have IC50 under 0.004 µM? 1.0

Quick check: does O=C1CCCC2(CCN(c3ncnc(N4CCCC4)n3)CC2)N1c1ccc(Cl)c(F)c1 have IC50 under 0.004 µM? 0.0

Quick check: does O=C1CCCC2(CCN(c3cc(-n4cncn4)ncn3)CC2)N1c1ccc(F)c(F)c1 have IC50 under 0.004 µM? 0.0

----------
# assay.system: LTC4S (Homo sapiens (Human), UniProt Q16873)
# assay.details: Human whole blood HTRF assay (LTC4 release after calcium ionophore A23187)
# Format: cell-based
# measurement.setup: human whole blood diluted 1:3, 4 h incubation, calcium ionophore A23187 stimulation, LTC4 by HTRF; read-out: human whole blood HTRF IC50
So I've got a bunch of compounds here, and I need their IC50 values.
Please state the figure in nM; there is no need to write the unit.

Dear colleague, I am looking for the recorded IC50 of the following compound: C[C@@H](Oc1cc(N2CCC3(CCCC(=O)N3c3ccc(F)c(F)c3)CC2)nc(CO)n1)C(F)(F)F (single isomer, unassigned) [Example 110b] 5

Dear colleague, I am looking for the recorded IC50 of the following compound: O=C1CCCC2(CCN(c3ncnc(N4CCC(O)(C(F)(F)F)CC4)n3)CC2)N1c1ccc(F)c(F)c1 4

Dear colleague, I am looking for the recorded IC50 of the following compound: Nc1nc(N2CCC3(CCCC(=O)N3c3ccc(F)c(F)c3)CC2)nc(-n2cc(F)cn2)n1 680

Dear colleague, I am looking for the recorded IC50 of the following compound: O=C1CCCC2(CCN(c3nc(C4=CCC(F)(F)CC4)c[nH]c3=O)CC2)N1c1ccc(F)c(F)c1 2

Dear colleague, I am looking for the recorded IC50 of the following compound: Nc1nc(OCC(F)(F)C(F)(F)F)cc(N2CCC3(CCCC(=O)N3c3ccc(F)c(F)c3)CC2)n1 3

Dear colleague, I am looking for the recorded IC50 of the following compound: N#Cc1nc(N2CCC3(CCCC(=O)N3c3ccc(F)c(F)c3)CC2)cc(-n2cccn2)n1 88

Dear colleague, I am looking for the recorded IC50 of the following compound: O=C1CCCC2(CCN(c3cc(OCC(F)(F)F)ccn3)CC2)N1c1ccc(Cl)c(F)c1 72
